Target: Gal4-RORγ-LBD (Homo sapiens)
Construct: expressed in transfected cells
Test: Gal4-RORγ Luciferase Reporter Assay in HEK-293T Cells
Type: cell-based
Conditions: HEK-293 cells, luciferase reporter, with ursolic acid
RECORDED ENDPOINT: EC50

See these solved cases before continuing.
MOLECULE | EXPERIMENTAL SYSTEM | EC50
C/C(=C\c1ccc2c(c1C)N(S(=O)(=O)c1cccc(OC(F)F)c1)C[C@H](CCC(=O)O)O2)c1c(F)cccc1Cl | Gal4-RORγ-LBD (Homo sapiens) | 0.5 to 5 µM
O=C(O)CC[C@H]1CN(S(=O)(=O)c2cccc(C(F)(F)F)c2)c2cc(/C=C/c3cc(F)ccc3C(F)(F)F)ccc2O1 [Example 89CP] | Gal4-RORγ-LBD (Homo sapiens) | < 0.5 µM
COC(=O)CC[C@H]1CN(S(=O)(=O)c2cccc(C(F)(F)F)c2)c2cc(C=C3CCCCC3)ccc2O1 | Gal4-RORγ-LBD (Homo sapiens) | 0.5 to 5 µM

Problem: So what does the record say about EC50 for CCOc1nn(CC)cc1S(=O)(=O)N1C[C@H](CCC(=O)O)Oc2ccc(/C=C/c3cccc(Cl)n3)cc21 [Example 89AA] ?
Solution: > 10 µM

###

Target: RORγ-LBD (Homo sapiens, UniProt P51449)
Construct: made in house; host or cells: SF9 cells (baculovirus); used as diluted lysate
Sequence (P51449 269-508 limits assumed): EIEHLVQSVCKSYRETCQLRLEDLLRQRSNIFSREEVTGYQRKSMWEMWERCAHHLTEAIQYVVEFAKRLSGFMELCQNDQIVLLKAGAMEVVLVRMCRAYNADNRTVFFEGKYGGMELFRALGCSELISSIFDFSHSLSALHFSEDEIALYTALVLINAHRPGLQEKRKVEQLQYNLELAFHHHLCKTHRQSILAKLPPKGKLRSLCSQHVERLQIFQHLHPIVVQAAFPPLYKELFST
Test: RORγ-Ligand Binding Domain (LBD) TR-FRET Assay
Type: biochemical
Conditions: RORγ-LBD TR-FRET assay
// reported EC50 for each item listed

Please review the entries below; each comes with its answer.
COMPOUND | TEST VALUE
C/C(=C\c1ccc2c(c1)N(S(=O)(=O)c1cccc(C(F)(F)F)c1)C[C@H](CCN1CCOCC1)O2)c1c(F)cccc1Cl [Example 119A] | < 500 nM
C/C(=C\c1ccc2c(c1)N(S(=O)(=O)c1cccc(C(F)(F)F)c1)C[C@@H](NC(=O)C(C)(C)O)C2)c1c(F)cccc1Cl [Example 116G] | < 500 nM

As a next step, examine the compound that follows.
Problem: Returns the measured EC50 for the input compound. Input: COc1cc(S(=O)(=O)N2c3cc(OCc4c(F)cccc4Cl)ccc3C=C(CO)[C@H]2C)ccc1F [Example 138]
Solution: < 500 nM

###

Biological target: RORγ-LBD (Homo sapiens)
Construct: made in house; host or cells: SF9 cells (baculovirus); used as diluted lysate
Experiment: RORγ-Ligand Binding Domain (LBD) TR-FRET Assay
Assay type: biochemical
Details: RORγ-LBD TR-FRET
pEC50: −log10 of the molar value.
RECORDED ENDPOINT: pEC50

Worked examples, 3 compounds total:
COMPOUND | EXPERIMENTAL SYSTEM | pEC50
CCOc1nn(CC)cc1S(=O)(=O)N1C[C@H](CCC(=O)O)Oc2ccc(/C=C/c3ccccn3)cc21 [Example 89E] | RORγ-LBD (Homo sapiens) | < 5.00
COC(=O)CC[C@H]1CN(S(=O)(=O)c2cccc(C(F)(F)F)c2)c2cc(/C=C3\CCOc4ccccc43)ccc2O1 [Example 38A] | RORγ-LBD (Homo sapiens) | > 6.30
CCOc1nn(CC)cc1S(=O)(=O)N1C[C@H](CCC(=O)O)Oc2ccc(/C=C/c3cccs3)cc21 [Example 89O] | RORγ-LBD (Homo sapiens) | > 6.30

Could you now consider this next compound?
Problem: Given the compound N#Cc1cccc(/C=C/c2ccc3c(c2)N(S(=O)(=O)c2cccc(C(F)(F)F)c2)C[C@H](CCC(=O)O)O3)c1F [Example 89BW] , what is its reported pEC50?
Solution: > 6.30
